assayed_system: T1, Human LILRB1 on transiently transfected HEK293-6E cells (human, UniProt Q8NHL6 24-650)
T1 construct: whole, on cells; also called hLILRB1
T1 sequence (Q8NHL6 24-650): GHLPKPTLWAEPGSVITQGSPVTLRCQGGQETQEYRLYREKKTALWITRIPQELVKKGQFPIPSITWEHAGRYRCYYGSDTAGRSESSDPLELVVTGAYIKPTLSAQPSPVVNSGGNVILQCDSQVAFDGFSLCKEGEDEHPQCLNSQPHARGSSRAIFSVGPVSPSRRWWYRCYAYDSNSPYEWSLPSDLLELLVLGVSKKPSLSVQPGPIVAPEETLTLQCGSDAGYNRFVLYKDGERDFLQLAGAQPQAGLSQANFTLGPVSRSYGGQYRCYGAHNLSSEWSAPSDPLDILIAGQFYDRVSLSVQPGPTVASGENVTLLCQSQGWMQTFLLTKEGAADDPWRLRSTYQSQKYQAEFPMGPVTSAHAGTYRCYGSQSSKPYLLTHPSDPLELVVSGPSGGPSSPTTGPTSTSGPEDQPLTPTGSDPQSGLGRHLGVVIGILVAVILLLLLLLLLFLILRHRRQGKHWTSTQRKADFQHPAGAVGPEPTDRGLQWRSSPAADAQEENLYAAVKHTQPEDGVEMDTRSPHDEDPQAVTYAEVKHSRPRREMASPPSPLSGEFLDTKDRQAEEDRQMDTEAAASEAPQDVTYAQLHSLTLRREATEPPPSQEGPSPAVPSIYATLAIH
method_summary: flow cytometry, transiently transfected HEK293-6E cells

binder	unit_abbrev	Bmax (MFI)
B2H1-35 (antibody, V domains shown, Humanized variant, human IgG1 / kappa) VH: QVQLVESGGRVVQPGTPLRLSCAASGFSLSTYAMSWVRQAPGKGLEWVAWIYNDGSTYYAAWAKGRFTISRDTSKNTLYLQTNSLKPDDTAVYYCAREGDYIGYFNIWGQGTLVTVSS VL: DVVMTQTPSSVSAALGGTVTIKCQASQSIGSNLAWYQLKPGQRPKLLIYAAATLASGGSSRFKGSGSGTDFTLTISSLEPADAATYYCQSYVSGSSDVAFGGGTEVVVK	MFI	41.3
